Test system: RXF 393 renal
PROTOCOL DETAILS: NCI tumour cell line growth inhibition, 48 h
OUTCOME MEASURE: TGI (µM)
Answer in µM, number only, no unit symbol.

# OCc1ccc(-c2ccc(-c3ccc(CO)s3)o2)s1 with RXF 393 renal: TGI is 1.77

# CC1(C)C2CCC1(C)[C@H](n1c(=O)n([C@@H]3CC4CCC3(C)C4(C)C)c(=O)n([C@@H]3CC4CCC3(C)C4(C)C)c1=O)C2 with RXF 393 renal: TGI is 55.8

# Cc1cc(/C=C/c2ccc3cc(N(C)C)ccc3[n+]2C)c(C)n1-c1ccccc1 with RXF 393 renal: TGI is 0.987

# O=c1c2sccc2n(CC2COc3ccccc3O2)c(=O)n1O (stereo unspecified) with RXF 393 renal: TGI is 9.7

# C=C(Br)C(C)(Br)CCC(Br)C(C)(C)Cl (stereo unspecified) with RXF 393 renal: TGI is 37.5

====

System: SW-620 colon
PROTOCOL DETAILS: NCI tumour cell line growth inhibition, 48 h
OUTCOME MEASURE: TGI

Sample C[C@@H]1CCC2[C@@H](C)[C@@H](OCC(CO[C@H]3OC4O[C@@]5(C)CC[C@H]6[C@H](C)CCC([C@H]3C)[C@@]46OO5)OC(=O)CCC(=O)O)OC3O[C@@]4(C)CC[C@@H]1[C@]32OO4 (stereo partly drawn) ; TGI observed: 18.1 µM

Sample CC1(C)C2CCC1(C)[C@H](n1c(=O)n([C@@H]3CC4CCC3(C)C4(C)C)c(=O)n([C@@H]3CC4CCC3(C)C4(C)C)c1=O)C2 ; TGI observed: > 100 µM

Sample CO[C@H]1/C=C(/C)CCC[C@H](C)[C@H](O)[C@@H](C)C(=O)C(C)(C)[C@@H](O)CC(=O)O[C@@H]1/C(C)=C/c1csc(C)n1 ; TGI observed: > 100 µM

Sample CC1OC(OC2C(OC(=O)[C@]34CCC(C)(C)C[C@H]3C3=CC[C@@H]5[C@@]6(C)CC[C@H](OC7OC(C(=O)O)C(O)C(O)C7O)C(C)(C)[C@@H]6CC[C@@]5(C)[C@]3(C)C[C@H]4O)OCC(O)C2O)C(O)C(OC2OCC(O)(CO)C2O)C1OC1OCC(O)C(O)C1O (stereo partly drawn) ; TGI observed: 23.2 µM

Sample CN1CCN(CCCn2c(=O)c3sc4ncccc4c3n3nnc(-c4ccccc4)c23)CC1 ; TGI observed: 11.5 µM

Sample CN(C)c1nc(=Nc2ccc(N=c3nc(N(C)C)ss3)cc2)ss1 ; TGI observed: > 65.9 µM

Sample COc1ccc2c(c1)OCC1Cc3ccccc3OC21 (stereo not drawn) ; TGI observed: > 100 µM

Sample CC(=O)[C@@]12O[C@@H]1CC1C3CCC4=CC(O)CCC4(C)C3CCC12C (stereo partly drawn) ; TGI observed: > 100 µM

Sample CCN(CC)CCN(C(=Nc1ccccc1)N1CCOCC1)c1ccccc1 ; TGI observed: > 100 µM

Sample COc1cc(/C=C/c2cc(O)c(C(C)=O)c(O)c2)cc2c1O[C@]1(C)CC[C@@H](O)C(C)(C)[C@H]1C2 ; TGI observed: > 100 µM

Sample NC1(C(=O)OCc2ccccc2)CCCC1 ; TGI observed: > 100 µM

Sample O=c1c2sccc2n(CC2COc3ccccc3O2)c(=O)n1O (stereo not drawn) ; TGI observed: > 100 µM

Sample CCC1(CC)C(=O)NN(C(=O)c2ccccc2)C1=O ; TGI observed: > 100 µM

Sample N#CC12C(=O)N=C(N)C1(C#N)C(c1ccco1)NC1=C2CCCC1 (stereo not drawn) ; TGI observed: > 100 µM

Sample Cc1cccc(NC(=O)Cn2cnc3sc(C(=O)OC(C)C)c(C)c3c2=O)c1 ; TGI observed: > 50 µM

Sample COc1ccc(/C=C(/C#N)n2nnc3cccc(F)c32)cc1 ; TGI observed: > 100 µM

Sample CCOC(=O)c1c(C)nc2c3ccccc3c(C#N)c(C)n12 ; TGI observed: > 100 µM

Sample O=C(CSc1ccc(Cl)cc1)Nc1ccc(-c2nc3ccccc3s2)c(Cl)c1 ; TGI observed: 83.4 µM
